All values here come from paper PMC6827286.

- experimentalSystem: T1, colFD-NL
- T1 chain: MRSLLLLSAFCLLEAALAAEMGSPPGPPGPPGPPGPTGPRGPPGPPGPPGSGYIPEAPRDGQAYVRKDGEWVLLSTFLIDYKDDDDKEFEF
- assayDetails: BRET
- details: chain shown with the change; in the ER of HEK293 cells; n = 4; parent: est. 100; read off a plot
endpointLabel: percent of parent (%)
# unit: % | format: bare number

Quick one: percent of parent of Hsp47-HT, P19324 D351A (protein) AEVKKPLEAAAPGTAEKLSSKATTLAERSTGLAFSLYQAMAKDQAVENILLSPLVVASSLGLVSLGGKATTASQAKAVLSAEKLRDEEVHTGLGELLRSLSNSTARNVTWKLGSRLYGPSSVSFADDFVRSSKQHYNCEHSKINFRDKRSALQSINEWASQTTDGKLPEVTKDVERTDGALLVNAMFFKPHWDEKFHHKMVDNRGFMVTRSYTVGVTMMHRTGLYNYYDDEKEKLQMVEMPLAHKLSSLIILMPHHVEPLERLEKLLTKEQLKAWMGKMQKKAVAISLPKGVVEVTHDLQKHLAGLGLTEAIDKNKADLSRMSGKKDLYLASVFHATAFEWDTEGNPFDQAIYGREELRSPKLFYADHPFIFLVRDNQSGSLLFIGRLVRPKGDKMRDEL ?
100
